# Test system: MS2 coat protein
# Assay Protocol: apparent KD of MS2 coat protein; designed switch direction (-1 OFF switch, 1 ON switch): -1; higher = weaker reporter binding
# Reported Conditions: Eterna round: R95; input ligand: FMN 200 uM
Recorded Endpoint: apparent KD of MS2 coat protein (µM)
Reply numerically in µM, unit not repeated.

// apparent KD of MS2 coat protein value for AAGAAGAAACAAGCUUUUUGCUCGUCUUAUAGUGACGCAACAUGAGGAUCACCCAUGUAUAGGAUGAGGGUGGAUAG [JR_SV3TOV2_Sub046] (puzzle: Sensor v3, turn-off variant 2) : 0.0769

// apparent KD of MS2 coat protein value for GAAAAGGUAGGAUAUACGAAAAAAAAGGGUAGAAAAAUAACACAUGAGGAUCACCCAUGUAGAAGGACCAAAAG [salish99_ex2_r3_074] (puzzle: Exclusion 2) : 0.111

# input for lookup
// apparent KD of MS2 coat protein value for CGUGACUGAGGAUAUCUAUGGUAUCACAUGAGGAUCACCCAUGUCCAGCGAAAGCUGGAGGGAGAAGGCAGUCACG [Fiskers Ex 5 - 32] (puzzle: Exclusion 5) : 0.117

----------
# Tested on: MS2 coat protein
# Assay Protocol: apparent KD of MS2 coat protein; higher = weaker reporter binding
# Reported Conditions: Eterna round: R107; input ligand: arginine 13.2 mM
In this section, each of the sequences is paired with its reported apparent KD of MS2 coat protein.
Reply numerically in nM, unit not repeated.

// apparent KD of MS2 coat protein value for AAUUGGCACUGAAGGAGCGAGUUUACCUAAAUAACAUGAGGAUCACCCAUGUAAAAUGGGACUCAGGUAGGUCGCAGUUGUCAAA [Same State Arginine B GF 22] : 48

More entries:
// apparent KD of MS2 coat protein value for AUCCUCUAGAAUGAUACCAGACCAAACAUGAGGAUCACCCAUGUAUCAGGCAAUUGUUACGUCCCUUGGCAGCAUGUAUGCCGAC [Theo B SS t3] : 17.7

// apparent KD of MS2 coat protein value for UGUGCAUGAGUUGUAAAAGCUCAUGGGCAUCGAGGACCGGUACGGCCGCCACUCGGCUGUACAUGAGGAUCACCCAUGUCAGGGU [#1 Same State - Tryptophan A Attempt #22 (HarryS)] : 133

----------
# Test system: MS2 coat protein
# Assay Protocol: apparent KD of MS2 coat protein; higher = weaker reporter binding
# Reported Conditions: Eterna round: R107; input ligand: theophylline 2 mM
Please mark MET if the recorded apparent KD of MS2 coat protein is equal to or greater than 50 nM, and NOT MET if it falls below.

(Q) Is apparent KD of MS2 coat protein at least 50 nM? Consider CACGAAAGAUCGGCCGCCACUAAUCUAUGUGUACUAGCACAUGAGGAUCACCCAUGUUCUUGCGUUAGGACCGGGAUUGAGCGUG [#03 Exclusion Tryptophan B]
(A) NOT MET

More entries:
(Q) Is apparent KD of MS2 coat protein at least 50 nM? Consider UCUUUUUUCUUUUCUUCUUUCGGUUCUUUUCGAGGACCGGUACGGCCGCCACUCGAAACAUGAGGAUCACCCAUGUUUUGGUUUU [Trypto a]
(A) NOT MET

(Q) Is apparent KD of MS2 coat protein at least 50 nM? Consider UGGGUACAUGAGGAUCACCCAUGUACUGAAGGAGCGGGACGAAUCUCAGGUAGGUCGCAGACAUGAGGAUCACCCAUGUAGUGGA [Exclusion Arginine A GF 15]
(A) NOT MET

(Q) Is apparent KD of MS2 coat protein at least 50 nM? Consider GUAUAGUCUCGAAGGAGCGUCACAUGAGGAUCACCCAUGUACAUGAGGAUCACCCAUGUGUGGCAGGUAGGUCGCGAGCUAUACC [Exclusion Arginine B GF8]
(A) MET

(Q) Is apparent KD of MS2 coat protein at least 50 nM? Consider GGAUAGGACACGGCCGCCACUGCCUAGGAUACUAGCAACAUUUGGGUACAAGAGGAUCACCCUUGUAGGACCGGGUGUCCUAUCG
(A) NOT MET

(Q) Is apparent KD of MS2 coat protein at least 50 nM? Consider AUAACAUGAGGAUCACCCAUGUAUUGGUUACGAGGACCGGUACGGCCGCCACUCGUAUUAUAGUGGUAUUUUGUUUAUAUGAUAA [JR_Nu_TrtptoA_Sub019]
(A) NOT MET

(Q) Is apparent KD of MS2 coat protein at least 50 nM? Consider CUGACGGACUCGGCCGCCACUGAUAGUAGGACAUGAGGAUCACCCAUGUAAACGAACCUCAUAGCCAGGACCGGGAGUCACGAAG [Same State Tryptophan B GF 22]
(A) MET

(Q) Is apparent KD of MS2 coat protein at least 50 nM? Consider UAUCUACAUGAAUAGGUUAUUCGAUUAUUUCGAGGACCGGUACGGCCGCCACUCGUUAACAUAUACAUGAGGAUCACCCAUGUUA [JR_Nu_SSTryptoA_Sub024]
(A) NOT MET

(Q) Is apparent KD of MS2 coat protein at least 50 nM? Consider CCUAUGCAGUCGGCCGCCACUGAACAUGAGGAUCACCCAUGUUAUUAUAAAUAUGGUCCUAAAAUCAGGACCGGGACUGUAUAGG [Ex Tryptophan B 8]
(A) MET

(Q) Is apparent KD of MS2 coat protein at least 50 nM? Consider GACUAUAUGAUAUGUCAGAAAUCCUCGAAACGAGGACCGGUACGGCCGCCACUCGAGUGAUCAACAUGAGGAUCACCCAUGUAAA [Tryp A Ex t1]
(A) NOT MET

(Q) Is apparent KD of MS2 coat protein at least 50 nM? Consider AAUUGGGUUGGUGAGGUGGUUGGAGGCGAUACCAGCGUGGAAACACGCCCUUGGCAGCGCCAGGACAUGAGGAUCACCCAUGUAA [Praha]
(A) MET

----------
In this section, each of the sequences is paired with its reported apparent KD of MS2 coat protein.
# System: MS2 coat protein
# Assay Protocol: apparent KD of MS2 coat protein; designed switch direction (-1 OFF switch, 1 ON switch): -1; higher = weaker reporter binding
# Reported Conditions: Eterna round: R95; input ligand: none
Reply numerically in nM, unit not repeated.

// apparent KD of MS2 coat protein value for GAGUGACAUGAGGAUCACCCAUGUGAGGAUAUGCGACGGACCAAAUUAACAAUAGAAGGCAGAAGGCGCAUAAA [Exclusion 1 V10] (puzzle: Exclusion 1) : 31.1

// apparent KD of MS2 coat protein value for AGUAACCGUCACGAAAGUGAUGGUUACACAAGCAUAUGUACAUGAGGAUCACCCAUGUCCUCAACUGCUCGUCUUAU [Sensor 3 - 55] (puzzle: Sensor v3, turn-off variant 2) : 424

// apparent KD of MS2 coat protein value for UUAUACGGUGAGGAUAUCUUCACUAAAGUGUGAAGAGAAGGCGCUACAUGAGGAUCACCCAUGUCUAUGGGCAG [Ex-6 Malc#17] (puzzle: Exclusion 6) : 156

// apparent KD of MS2 coat protein value for AGUAGUUGUUUCCGUUCUUACAUGAGGAUCACCCAUGUUUCUUGUCGUGCUCGCGUUGCUCGUCAGACUACCUGUUG [salish99_TOv1_r3_062] (puzzle: Sensor v3, turn-off variant 1) : 105

// apparent KD of MS2 coat protein value for AGUUGCGCAGGAUAUACAUGAGGAUCACCCAUGUGAGAGAAAUAAGUGAGGAAGAAAAGUAGAAGGGCGUGACG [Mat - Exclusion 3 - Mod of Salish D73] (puzzle: Exclusion 3) : 57.3

// apparent KD of MS2 coat protein value for AAGAAACAUGAGGAUCACCCAUGUGAGGAUAUGAAAAAGAAAAGAAAAGAAAGAAGAAUCAGAAGGCACAAAGG [salish99-ex1_r3_019] (puzzle: Exclusion 1) : 34

More entries:
// apparent KD of MS2 coat protein value for GCCGAGUGAGGAUAUACAUGAGGAUCACCCAUGUAAACACGAAAGCAAGUGUCCCUCAGUAGAAGGCGCCAGGA [Xeanonis] (puzzle: Exclusion 3) : 14

----------
# Test system: MS2 coat protein
# Assay Protocol: apparent KD of MS2 coat protein; designed switch direction (-1 OFF switch, 1 ON switch): -1; higher = weaker reporter binding
# Reported Conditions: input ligand: none
Recorded Endpoint: apparent KD of MS2 coat protein
Report as: number unit

Below, 2 sequences whose answers are already recorded.
// apparent KD of MS2 coat protein value for ACAAGCUUUUAGAUUCUUAACAUGAGGAUCACCCAUGUGCUCGUCUUAUUGGGCCCGGGCCCGCCGGGCCCGGGCCC (Eterna round: R97, puzzle: Sensor, turn-off variant 1) : 42.6 nM

// apparent KD of MS2 coat protein value for UCAUGUCCGGAGGAUAUGGCGCCCGUAAGGGCGCCAGAAGGCCGGACAUGAGGAUCACCCAUGUCGGCCUUCCC (Eterna round: R97, puzzle: Exclusion 6) : 28.4 nM

More entries:
// apparent KD of MS2 coat protein value for GCCUACAGAGGAUAUACAAAUGUAUGAAACCUGUUUAGACGACAUGAGGAUCACCCAUGUAGAAGGCUGUGGGC [Eternabot (L1) Solution 85] (Eterna round: R97, puzzle: Exclusion 2) : 37.5 nM

Measured values drawn from the supplement of paper PMC9170038 for this set.
